molecular target: Aldo-keto reductase family 1 member B1 (Bos taurus) (UniProt P16116); experiment: Inhibition of aldose reductase activity in partially purified bovine lens preparation at 4*10 e-8 M
Property Measured: inhibition

>>> endpoint_result("COc1ccc2c(c1)C(=O)N(Cc1ccc(Br)cc1F)C(=O)C2CC(=O)O (stereo not given)")
"61%"
>>> endpoint_result("O=C(O)CC1C(=O)N(Cc2ccc(Br)cc2F)C(=O)c2ccc(Cl)cc21 (stereo not given)")
"57%"
>>> endpoint_result("O=C(O)CC1C(=O)N(Cc2ccc(Br)cc2F)C(=O)c2cc(Cl)ccc21 (stereo not given)")
"30%"
>>> endpoint_result("O=C(O)CC1C(=O)N(Cc2nc3cc(C(F)(F)F)ccc3s2)C(=O)c2ccccc21 (stereo not given)")
"65%"
>>> endpoint_result("O=C(O)CC1C(=O)N(Cc2ccc(Br)cc2F)C(=O)c2cc(F)ccc21 (stereo not given)")
"42%"
>>> endpoint_result("O=C(O)CC1C(=O)N(Cc2ccc(Cl)c(Cl)c2)C(=O)c2ccccc21 (stereo not given)")
"58%"
>>> endpoint_result("O=C(O)CC1C(=O)N(Cc2nc3cc(C(F)(F)F)ccc3s2)C(=O)c2ccc(F)cc21 (stereo not given)")
"62%"
>>> endpoint_result("O=C(O)CC1C(=O)N(Cc2ccc(Br)cc2F)C(=O)c2ccc(F)cc21 (stereo not given)")
"80%"
>>> endpoint_result("O=C1Cc2c(n(Cc3ccc(Br)cc3F)c(=O)c3ccccc23)O1")
"32%"
>>> endpoint_result("O=C(O)CC1C(=O)N(Cc2ccc(Br)cc2F)C(=O)c2ccccc21 (stereo not given)")
"50%"

Data credit: ChEMBL document CHEMBL1127562
